system.name: T1, cynomolgus PAI-1 (cynomolgus monkey (Macaca fascicularis), UniProt P05121 24-402 (human entry))
T1 construct: produced in-house in E. coli (non-glycosylated); active cyno PAI-1 in the assays; also called cyno PAI-1; cPAI-1
measurement.protocol: Biacore, mAb on anti-human IgG Fc chip / cyno PAI-1, 1:1 model
test.readout: kon (M⁻¹ s⁻¹)
Please reply with the bare figure in M⁻¹ s⁻¹ and do not write the unit itself.

Enquiry: Write down kon measured for item A44-hv12 (antibody, V domains shown, humanized A44, HEK293; constant regions as for A44-hv1; also called LC4 x HC3; variant 12) VH: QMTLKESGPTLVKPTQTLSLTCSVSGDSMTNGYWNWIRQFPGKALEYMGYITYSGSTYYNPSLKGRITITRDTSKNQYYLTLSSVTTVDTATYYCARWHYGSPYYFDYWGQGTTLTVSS VL: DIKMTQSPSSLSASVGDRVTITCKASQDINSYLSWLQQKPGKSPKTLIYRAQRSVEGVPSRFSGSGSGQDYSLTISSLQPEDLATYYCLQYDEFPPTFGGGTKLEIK
Return: 2.24e+06

Enquiry: Note down kon recorded for A44-hv11 (antibody, V domains shown, humanized A44, HEK293; compared with a human IgG1 isotype control; constant regions as for A44-hv1; also called A44V11; A44v11) VH: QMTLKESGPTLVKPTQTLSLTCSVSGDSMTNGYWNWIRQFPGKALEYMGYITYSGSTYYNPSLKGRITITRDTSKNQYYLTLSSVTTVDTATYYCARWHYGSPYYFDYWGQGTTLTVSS VL: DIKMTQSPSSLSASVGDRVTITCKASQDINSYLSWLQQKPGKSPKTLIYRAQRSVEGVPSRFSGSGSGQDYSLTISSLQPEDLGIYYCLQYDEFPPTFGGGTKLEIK
Return: 1.87e+06

Enquiry: Give me measured kon, please, for this binder: A44-hv13 (antibody, V domains shown, humanized A44, HEK293; constant regions as for A44-hv1; also called LC2 x HC5b; variant 13) VH: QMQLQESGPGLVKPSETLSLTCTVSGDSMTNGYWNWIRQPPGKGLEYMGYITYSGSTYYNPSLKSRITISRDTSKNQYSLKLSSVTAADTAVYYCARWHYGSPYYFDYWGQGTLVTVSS VL: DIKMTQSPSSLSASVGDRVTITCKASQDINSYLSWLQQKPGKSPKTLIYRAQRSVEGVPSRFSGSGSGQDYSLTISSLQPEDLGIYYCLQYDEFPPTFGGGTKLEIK
Return: 1.89e+06

Enquiry: Let me know recorded kon for A44-hv14 (antibody, V domains shown, humanized A44, HEK293; constant regions as for A44-hv1; also called LC4 x HC5b; variant 14) VH: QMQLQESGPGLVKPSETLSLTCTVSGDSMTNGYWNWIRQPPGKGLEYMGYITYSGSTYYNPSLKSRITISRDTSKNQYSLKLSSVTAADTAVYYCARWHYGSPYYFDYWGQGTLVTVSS VL: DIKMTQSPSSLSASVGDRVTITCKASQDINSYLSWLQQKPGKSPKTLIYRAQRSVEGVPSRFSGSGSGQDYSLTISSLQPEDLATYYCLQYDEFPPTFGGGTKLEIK , thanks.
Return: 2.32e+06
